Listing of recorded IC50 by entry.
- studySystem: T1, human IgEλ (U266 derived) (human, UniProt P01854-1 1-428)
- T1 construct: Whole IgE purified from U266 cells (Ikeyama et al. 1986); labelled with europium cryptate or biotin in some assays; also called human IgE (U266-derived); human IgE lambda
- T1 sequence (P01854 other isoform, or with tags, fused parts or gaps): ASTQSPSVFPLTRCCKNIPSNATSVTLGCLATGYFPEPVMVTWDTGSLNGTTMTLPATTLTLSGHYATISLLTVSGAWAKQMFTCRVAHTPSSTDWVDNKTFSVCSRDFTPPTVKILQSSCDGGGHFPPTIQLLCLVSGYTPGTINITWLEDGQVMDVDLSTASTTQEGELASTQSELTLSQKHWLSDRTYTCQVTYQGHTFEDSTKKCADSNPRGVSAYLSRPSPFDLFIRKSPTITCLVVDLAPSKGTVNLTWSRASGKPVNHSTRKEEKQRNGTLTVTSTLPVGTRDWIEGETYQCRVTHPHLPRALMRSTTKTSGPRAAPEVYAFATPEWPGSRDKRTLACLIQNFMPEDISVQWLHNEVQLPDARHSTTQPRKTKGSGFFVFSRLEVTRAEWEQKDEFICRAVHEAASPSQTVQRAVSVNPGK
- assayName: HTRF competition: scFv against Eu-cryptate human IgE binding to human FcεRI-Fc
Please respond with the number in nM and leave the unit unwritten.

As a guide, the following entries are already answered.
binder	assayValue
Antibody 23 scFv (scFv, V domains shown, Purified scFv, non-germlined) VH: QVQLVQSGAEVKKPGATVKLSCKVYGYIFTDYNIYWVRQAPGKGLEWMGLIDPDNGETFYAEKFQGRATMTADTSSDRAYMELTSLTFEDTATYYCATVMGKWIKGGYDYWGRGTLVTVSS VL: QSVLTQPPSVSGAPGQRVTISCTGSSSNIGAGYDVHWYQQLPGTAPKLLIYDNFNRPSGVPDRFSGSKSGTSASLAIIGLQTEDEADYYCQSYDSHHLYSSFGTGTKLTVL	1
Antibody 22 scFv (scFv, V domains shown, Purified scFv, non-germlined) VH: QVQLVQSGAEVKKPGATVKLSCKVYGYIFTDYNIYWVRQAPGKGLEWMGLIDPDNGETFYAEKFQGRATMTADTSSDRAYMELTSLTFEDTATYYCATVTLKSAKGGYDYWGRGTLVTVSS VL: QSVLTQPPSVSGAPGQRVTISCTGSSSNIGAGYDVHWYQQLPGTAPKLLIYDNFNRPSGVPDRFSGSKSGTSASLAIIGLQTEDEADYYCQSYDSSGGYAPFGTGTKLTVL	6

Continue with the next binder.
For the binder shown here, Antibody 25 scFv (scFv, V domains shown, Purified scFv, non-germlined) VH: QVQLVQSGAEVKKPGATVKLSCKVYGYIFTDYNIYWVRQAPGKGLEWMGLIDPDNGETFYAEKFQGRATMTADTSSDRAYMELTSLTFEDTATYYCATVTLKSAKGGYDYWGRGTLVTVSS VL: QSVLTQPPSVSGAPGQRVTISCTGSSSNIGAGYDVHWYQQLPGTAPKLLIYDNFNRPSGVPDRFSGSKSGTSASLAIIGLQTEDEADYYCQSYDSNHKTSPFGTGTKLTVL , give the reported IC50. 8

The reported numbers originate from patent US20090060919A1.
